Target: SARS-CoV-2 NSP3 macrodomain (Mac1), P43 crystal form (Severe acute respiratory syndrome coronavirus 2, UniProt P0DTD1)
Format: binding
Details: crystal soak, soak concentration 10 mM
quantity_measured: Pandda run, overall: Modeling comment

{"molecule": "O=C(O)C(c1ccccc1)n1sc2ccccc2c1=O (centres unmarked)", "assay_value": "Duplicate, not modeled"}
{"molecule": "O=C(O)C(F)(F)F.OCC(Cc1cccc(F)c1)Nc1ncnc2[nH]ccc12 (centres unmarked)", "assay_value": "TFA only"}
{"molecule": "CC(C)(C)C(O)CC(CO)Nc1ncnc2[nH]ccc12.O=C(O)C(F)(F)F (centres unmarked)", "assay_value": "TFA only"}
{"molecule": "O=C(O)C(F)(F)F.OC1c2ccccc2CC1Nc1ncnc2[nH]ccc12 (centres unmarked)", "assay_value": "TFA only"}
{"molecule": "CC(C)n1nnnc1SCc1c(C(=O)O)sc2cccc(F)c12", "assay_value": "Duplicate, not modeled"}
{"molecule": "O=C(O)C1CCCN1S(=O)(=O)c1cccc2nsnc12 (centres unmarked)", "assay_value": "DMSO"}

###

Molecular target: SARS-CoV-2 NSP3 macrodomain (Mac1) (Severe acute respiratory syndrome coronavirus 2)
Experiment: biochemical
Format: binding
Conditions: confirmatory dose-response, best fit value of 3-4 technical replicates; Fig. S3 prints the 95% confidence interval in brackets; read-out: HTRF IC50
pIC50: −log10 of the molar value.

{"compound": "CCC(O)[C@H]1CCCN1c1ncnc2[nH]ccc12 (stereo partly shown)", "subject_of_test": "SARS-CoV-2 NSP3 macrodomain (Mac1) (Severe acute respiratory syndrome coronavirus 2)", "pIC50": 4.34}

###

Assay: Microsomal stability
Format: in vitro ADME, mouse
Conditions: mouse, microsomes, pH 7.4; 1 μM compound, 0.5 mg/ml microsomal protein; read-out: Mouse microsome T1/2
Listed here: items and their measured half-life at 1 µM.

{"molecule": "C[C@H]1CCCN(c2ncnc3[nH]ccc23)[C@H]1CO", "reading_unit": "min", "limit_operator": "=", "half-life at 1 µM": 31.2}
{"molecule": "Cc1c[nH]c2ncnc(NCC3(O)CCCCC3)c12", "reading_unit": "min", "limit_operator": "=", "half-life at 1 µM": 7.49}
{"molecule": "O=C(Nc1ccc(C(=O)N[C@H]2c3cccc(O)c3C[C@H]2C(=O)O)cc1)NC1CC1 [AVI-92, reference compound]", "reading_unit": "min", "limit_operator": ">", "half-life at 1 µM": 120}

###

Target: SARS-CoV-2 NSP3 macrodomain (Mac1) (Severe acute respiratory syndrome coronavirus 2)
Assay: biochemical
Assay type: binding
Conditions: Single dose, 200 μM; mean of three technical replicates; read-out: Average % competition
Listed here: items and their measured inhibition at 200 µM.

{"compound": "O=C(O)C(c1ccccc1)n1sc2ccccc2c1=O (stereo not shown)", "subject_of_test": "SARS-CoV-2 NSP3 macrodomain (Mac1) (Severe acute respiratory syndrome coronavirus 2)", "inhibition at 200 µM (%)": 21}
{"compound": "OCC(Cc1ccccc1)Nc1ncnc2[nH]ccc12 (stereo not shown)", "subject_of_test": "SARS-CoV-2 NSP3 macrodomain (Mac1) (Severe acute respiratory syndrome coronavirus 2)", "inhibition at 200 µM (%)": 75}
{"compound": "O=C(Nc1ccsc1C(=O)O)c1ccc2c(c1)OCO2", "subject_of_test": "SARS-CoV-2 NSP3 macrodomain (Mac1) (Severe acute respiratory syndrome coronavirus 2)", "inhibition at 200 µM (%)": 29}
{"compound": "CC(C)n1nnnc1SCc1c(C(=O)O)sc2cccc(F)c12", "subject_of_test": "SARS-CoV-2 NSP3 macrodomain (Mac1) (Severe acute respiratory syndrome coronavirus 2)", "inhibition at 200 µM (%)": 41}
{"compound": "CC(CNC(=O)c1ccc2c(c1)CCC(=O)N2)C(=O)O (stereo not shown)", "subject_of_test": "SARS-CoV-2 NSP3 macrodomain (Mac1) (Severe acute respiratory syndrome coronavirus 2)", "inhibition at 200 µM (%)": 50}
{"compound": "Cc1sc2ncnc(Sc3ccccc3C(=O)O)c2c1C", "subject_of_test": "SARS-CoV-2 NSP3 macrodomain (Mac1) (Severe acute respiratory syndrome coronavirus 2)", "inhibition at 200 µM (%)": 24}
{"compound": "O=C1CCc2cc(C(=O)N3CC(C(=O)O)CCC34CCCC4)c(F)cc2N1 (stereo not shown)", "subject_of_test": "SARS-CoV-2 NSP3 macrodomain (Mac1) (Severe acute respiratory syndrome coronavirus 2)", "inhibition at 200 µM (%)": 23}

The measurements presented in this section are drawn from paper doi:10.1101/2024.08.25.609621.
